# measurement target: recombinant human SGK-1 enzyme (Homo sapiens, UniProt O00141)
# Sequence (O00141 whole entry, looked up): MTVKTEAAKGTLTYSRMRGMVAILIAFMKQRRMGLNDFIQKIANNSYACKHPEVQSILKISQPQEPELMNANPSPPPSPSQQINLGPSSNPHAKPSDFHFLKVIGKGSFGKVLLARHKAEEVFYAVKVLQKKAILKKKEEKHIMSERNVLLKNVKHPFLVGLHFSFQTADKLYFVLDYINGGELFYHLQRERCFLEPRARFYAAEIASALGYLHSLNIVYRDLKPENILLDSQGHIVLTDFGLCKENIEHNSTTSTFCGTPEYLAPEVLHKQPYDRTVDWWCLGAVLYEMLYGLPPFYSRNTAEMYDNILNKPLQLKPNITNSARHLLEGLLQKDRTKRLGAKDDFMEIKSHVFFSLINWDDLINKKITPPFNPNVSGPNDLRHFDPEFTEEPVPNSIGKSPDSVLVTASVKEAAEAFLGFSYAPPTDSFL
# test summary: Enzymatic activity assay: SGK-1 substrate peptide phosphorylation (Caliper lab-chip mobility shift)
# Assay type: biochemical
# run conditions: peptide substrate 1 μM, ATP 10 μM, 60 min at 37° C., read-out: IC50 values for inhibition of SGK-1 enzymatic activity
So basically, if IC50 comes in under 100 nM it's Satisfied, and if it's 100 nM or more it's Not satisfied.

// below: answered compounds
| compound | answer label |
| --- | --- |
| COCCN1CCC(Oc2nc(-c3ccc(NS(=O)(=O)c4cc(F)ccc4F)cc3)nc3[nH]nc(C)c23)CC1 [Example 407] | Satisfied |
| COCCc1nc(-c2ccc(NS(=O)(=O)c3ccccc3F)cc2)nc2[nH]nc(N)c12 [Example 512] | Not satisfied |
| O=S(=O)(Nc1ccc(-c2nc(OC3CCC(O)CC3)c3cn[nH]c3n2)cc1F)c1cc(Cl)ccc1Cl (stereo not shown) [Example 439] | Satisfied |
| COc1nc(-c2ccc(NS(=O)(=O)c3cc(Cl)ccc3C#N)cc2)nc2[nH]ncc12 [Example 138] | Satisfied |
| COCCc1nc(-c2ccc(NS(=O)(=O)c3cc(Cl)ccc3F)cc2)nc2[nH]nc(N)c12 [Example 506] | Not satisfied |
| Cc1n[nH]c2nc(-c3ccc(NS(=O)(=O)c4cc(Cl)ccc4F)cc3)nc(OCCCO)c12 [Example 391] | Satisfied |

Turning to the following compound.
Confirm or reject: IC50 of CC(C)COc1nc(-c2ccc(NS(=O)(=O)c3cc(F)c(F)cc3Cl)cc2)nc2[nH]nc(N)c12 [Example 325] lies strictly below 100 nM
Not satisfied

Reference source for all entries: patent US9718825B2
